- Target System: 5-HT1A receptor (Sus scrofa)
- Construct: membranes from pig brain cortex; from tissue; host or cells: pig brain cortex membranes
- Sequence (A0A4X1UTF5 1-422): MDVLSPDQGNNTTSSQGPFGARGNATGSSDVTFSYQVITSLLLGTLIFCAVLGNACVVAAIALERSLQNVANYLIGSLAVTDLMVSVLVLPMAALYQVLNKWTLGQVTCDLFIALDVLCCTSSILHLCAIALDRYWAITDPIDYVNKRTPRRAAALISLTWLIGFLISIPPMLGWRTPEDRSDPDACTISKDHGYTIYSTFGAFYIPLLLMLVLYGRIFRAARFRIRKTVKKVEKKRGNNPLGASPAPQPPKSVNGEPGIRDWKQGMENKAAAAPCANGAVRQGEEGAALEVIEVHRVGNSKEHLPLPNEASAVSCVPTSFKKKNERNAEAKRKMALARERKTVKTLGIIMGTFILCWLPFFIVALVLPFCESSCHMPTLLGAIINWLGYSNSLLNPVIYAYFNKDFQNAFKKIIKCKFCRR
- Assay: Radioligand binding with [3H]8-OH-DPAT, affinity for 5-HT1A receptor
- Condition Info: membranes from pig brain cortex, IC50 corrected according to Cheng and Prusoff, read-out: Receptor affinity 5-HT1A, expressed in pKI values (converted)
Readout Type: Ki (nM)
Write the value in nM as a bare number.

Data request: Indicate its recorded Ki; the molecule in question is `CCOc1ccccc1N1CCN(CCCNc2c(CCC#N)c(=O)n(C)c(=O)n2C)CC1`
Data returned: 0.398

Data request: Supply reported Ki belonging to this molecule: `COc1cc(N)ccc1N1CCN(CCCNc2c(C)c(=O)n(C)c(=O)n2C)CC1`
Data returned: 2

Data request: Give a short answer stating reported Ki for `CCOC(=O)c1c(NCCCN2CCN(c3ccccc3OC)CC2)n(C)c(=O)n(C)c1=O` .
Data returned: 6.31

Data request: Please indicate Ki recorded for Cn1c(NCCCN2CCN(c3cccc4c3OCC(CO)O4)CC2)c(Cc2c(NCCCN3CCN(c4cccc5c4OCC(CO)O5)CC3)n(C)c(=O)n(C)c2=O)c(=O)n(C)c1=O (centres unmarked)
Data returned: 0.501

Data request: Read off the recorded Ki for `COc1cc(NC(C)=O)ccc1N1CCN(CCCNc2c(C)c(=O)n(C)c(=O)n2C)CC1`
Data returned: 5.01

Data request: Look up and state reported Ki for `Cc1c(NCCCN2CCN(c3ccccc3O)CC2)n(C)c(=O)n(C)c1=O`
Data returned: 0.251

Data request: Provide only the value of recorded Ki for `COc1ccccc1N1CCN(CCCNc2c(OC)c(=O)n(C)c(=O)n2C)CC1`
Data returned: 2.51

Data request: Fill in reported Ki for this entry: `COc1ccccc1N1CCN(CCCNc2c(C=NO)c(=O)n(C)c(=O)n2C)CC1`
Data returned: 1

Data request: Using known records, supply Ki for `COc1ccccc1N1CCN(CCCNC(=O)c2cc(=O)n(C)c(=O)n2C)CC1`
Data returned: 2.51

Data request: Give the value of Ki reported for the following: `COc1ccccc1N1CCN(CCCNc2cc(=S)n(C)c(=O)n2C)CC1`
Data returned: 10

Next:
Data request: Provide measured Ki value, entry: `COc1ccccc1N1CCN(CCCNC2=CC(=O)N(C)S(=O)(=O)N2C)CC1`
Data returned: 15.8

Data request: Using known records, supply Ki for `CON=Cc1c(NCCCN2CCN(c3ccccc3OC)CC2)n(C)c(=O)n(C)c1=O`
Data returned: 1.58

Data request: Output Ki of `COc1cc(Br)c(Br)cc1N1CCN(CCCNc2c(C)c(=O)n(C)c(=O)n2C)CC1`
Data returned: 1.26

Data request: Please supply the value of reported Ki for the item `COc1ccccc1N1CCN(CCCNc2c(Cc3c(NCCCN4CCN(c5ccccc5OC)CC4)n(C)c(=O)n(C)c3=O)c(=O)n(C)c(=O)n2C)CC1`
Data returned: 12.6

Values were extracted from patent US6046329A.
